molecular target: hPR-A (Homo sapiens, UniProt P06401); experiment: Receptor competitive binding assay; details: Table 2, repeats PR binding Ki of Table 1; read-out: ki
// reported pKi for each item listed
Please report pKi as the negative decimal logarithm of the molar concentration, giving only the number.

molecule	pKi
CC1=CC(C)(C)Nc2ccc3c(c21)C(C1CCC(C)=C1C)Oc1c(F)cc(F)cc1-3 (racemic)	8.41

Below: the item to evaluate.
Lab book: pKi of CC1=CC(C2Oc3ccc(F)cc3-c3ccc4c(c32)C(C)=CC(C)(C)N4)CCC1 (racemic) noted as 8.19

* * *

Biological target: hPR (Homo sapiens)
Sequence (P06401 1-933): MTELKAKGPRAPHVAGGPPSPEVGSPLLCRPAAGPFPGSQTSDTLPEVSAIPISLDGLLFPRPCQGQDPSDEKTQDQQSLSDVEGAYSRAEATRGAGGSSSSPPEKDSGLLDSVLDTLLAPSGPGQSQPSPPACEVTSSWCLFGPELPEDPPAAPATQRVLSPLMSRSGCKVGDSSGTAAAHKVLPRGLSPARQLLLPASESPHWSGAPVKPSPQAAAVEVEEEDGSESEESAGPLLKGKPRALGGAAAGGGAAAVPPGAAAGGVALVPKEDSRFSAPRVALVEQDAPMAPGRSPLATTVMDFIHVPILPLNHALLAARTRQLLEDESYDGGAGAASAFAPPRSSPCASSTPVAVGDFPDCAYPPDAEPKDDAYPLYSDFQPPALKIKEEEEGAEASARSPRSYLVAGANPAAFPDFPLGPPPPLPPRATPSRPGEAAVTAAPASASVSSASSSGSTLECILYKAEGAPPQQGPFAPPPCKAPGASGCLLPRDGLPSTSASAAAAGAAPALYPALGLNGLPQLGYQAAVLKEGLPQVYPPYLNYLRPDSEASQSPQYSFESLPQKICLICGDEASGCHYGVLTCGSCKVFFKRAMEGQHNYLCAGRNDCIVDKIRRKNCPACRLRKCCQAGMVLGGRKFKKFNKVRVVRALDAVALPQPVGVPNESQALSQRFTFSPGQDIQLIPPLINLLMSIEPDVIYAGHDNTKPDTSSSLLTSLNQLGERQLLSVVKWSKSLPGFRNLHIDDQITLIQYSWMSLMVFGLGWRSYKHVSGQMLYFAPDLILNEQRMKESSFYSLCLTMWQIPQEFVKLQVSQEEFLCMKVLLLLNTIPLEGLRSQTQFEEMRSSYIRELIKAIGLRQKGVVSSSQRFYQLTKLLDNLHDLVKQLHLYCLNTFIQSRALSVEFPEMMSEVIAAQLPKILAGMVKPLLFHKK
Test: Cotransfection assay, PR agonist activity in CV-1 cells
Type: cell-based
Settings: Table 2, repeats PR agonist potency of Table 1; read-out: EC50
Listing of recorded EC50 by entry.
Output should be the measured figure followed by the unit it is expressed in.

compound	experimental.system	EC50
CC1=CC(C)(C)Nc2ccc3c(c21)C(C1CCC(C)=C1C)Oc1c(F)cc(F)cc1-3 (racemic) [Compound 71]	hPR (Homo sapiens)	3.4 nM

Next item in the queue.
What the record says about CC1=CC(C2Oc3ccc(F)cc3-c3ccc4c(c32)C(C)=CC(C)(C)N4)CCC1 (racemic) [Compound 24] : EC50 is 3.6 nM

* * *

Entries and their measured PR Agonist CV-1 Cells Efficacy (%) follow.
biological target: hPR (Homo sapiens); assay: Cotransfection assay, PR agonist activity in CV-1 cells; type: cell-based; conditions: CV-1 cells, MTV-LUC reporter; percent maximal response relative to progesterone
A number alone suffices; assume %.

Below: 6 molecules and their reported PR Agonist CV-1 Cells Efficacy (%).
molecule	experimental.system	PR Agonist CV-1 Cells Efficacy (%)
CC1=C[C@H]([C@H]2Oc3ccc(F)cc3-c3ccc4c(c32)C=CC(C)(C)N4)CCC1 (racemic)	hPR (Homo sapiens)	122
CC1=CC(C)(C)Nc2ccc3c(c21)C(C1CCC(C)=C1C)Oc1c(F)cc(F)cc1-3 (racemic)	hPR (Homo sapiens)	139
CC1=CC(C2Oc3ccc(F)cc3-c3ccc4c(c32)C(C)=CC(C)(C)N4)CCC1 (single isomer, unassigned; (-)) [Compound 28]	hPR (Homo sapiens)	171
CC1=C[C@@H]([C@H]2Oc3ccc(F)cc3-c3ccc4c(c32)C=CC(C)(C)N4)CCC1 (racemic)	hPR (Homo sapiens)	27
CC(=O)[C@H]1CC[C@H]2[C@@H]3CCC4=CC(=O)CC[C@]4(C)[C@H]3CC[C@]12C [Prog, progesterone, reference compound]	hPR (Homo sapiens)	100
CC1=CC(C2Oc3ccc(F)cc3-c3ccc4c(c32)C(C)=CC(C)(C)N4)CCC1 (racemic) [Compound 25]	hPR (Homo sapiens)	86

Let's switch to this molecule now.
Consider CC1=CC(C2Oc3ccc(F)cc3-c3ccc4c(c32)C(C)=CC(C)(C)N4)CC1 (racemic) [Compound 44] . Its measured PR Agonist CV-1 Cells Efficacy (%) is 123
